# pKi values compiled below
# TARGET ENTITY: mu opioid receptor (Rattus norvegicus)
# Construct: the forebrains were homogenized in Tris buffer in a Teflon®-glass homogenizer; from tissue; host or cells: forebrain of male Wistar rats, particulate (membrane) preparation
# Sequence (P33535 whole entry): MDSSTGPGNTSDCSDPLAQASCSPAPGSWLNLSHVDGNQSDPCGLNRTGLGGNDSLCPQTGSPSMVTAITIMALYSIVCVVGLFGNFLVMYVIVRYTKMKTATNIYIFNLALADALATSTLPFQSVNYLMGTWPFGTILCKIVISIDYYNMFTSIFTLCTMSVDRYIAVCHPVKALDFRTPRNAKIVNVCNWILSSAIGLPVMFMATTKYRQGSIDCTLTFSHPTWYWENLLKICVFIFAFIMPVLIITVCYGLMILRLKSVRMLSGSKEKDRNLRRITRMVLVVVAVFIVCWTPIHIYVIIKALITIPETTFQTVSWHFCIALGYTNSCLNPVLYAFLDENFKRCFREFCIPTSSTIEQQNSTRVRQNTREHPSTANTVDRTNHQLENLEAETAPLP
# PROTOCOL NOTES: Rat brain mu opioid receptor binding assay
# EXPERIMENTAL PARAMETERS: rat forebrain, [3H]DAMGO ligand; read-out: μ-binding Ki
pKi: −log10 of the molar value.
VALUE KIND: pKi

[
  {
    "COMPOUND": "COc1ccc(Oc2nc(-c3cn[nH]c3)ncc2NC[C@@H]2CCCN2)cc1 [Cpd 65]",
    "CENSORING OPERATOR": "=",
    "NUMERIC RESULT": 6.26
  },
  {
    "COMPOUND": "COc1ccc(Oc2nc(-c3ccc(NC(C)=O)cc3)ncc2NC[C@@H]2CCCN2)cc1 [Cpd 43]",
    "CENSORING OPERATOR": "=",
    "NUMERIC RESULT": 6.28
  },
  {
    "COMPOUND": "COc1ccc(Oc2nc(-c3cncnc3)ncc2NC[C@@H]2CC(F)(F)CN2)cc1 [Cpd 79]",
    "CENSORING OPERATOR": "<",
    "NUMERIC RESULT": 5.00
  },
  {
    "COMPOUND": "COc1ccc(Oc2nc(-c3cnc(OC)nc3OC)ncc2NC[C@@H]2CCCN2)cc1 [Cpd 58]",
    "CENSORING OPERATOR": "=",
    "NUMERIC RESULT": 6.19
  },
  {
    "COMPOUND": "COc1ccc(Oc2nc(-c3ccc(-c4ccccc4)cc3)ncc2NC[C@@H]2CCCN2)cc1 [Cpd 19]",
    "CENSORING OPERATOR": "=",
    "NUMERIC RESULT": 5.09
  }
]

###

Measured GTPγS δ-RelEfficacy @200 nM, listed per entry for reference.
# TARGET ENTITY: delta opioid receptor (Mus musculus)
# Construct: NG108-15 cell membranes were purchased from Applied Cell Sciences (Rockville, Md.); host or cells: NG108-15 cell membranes
# Sequence (P32300 whole entry): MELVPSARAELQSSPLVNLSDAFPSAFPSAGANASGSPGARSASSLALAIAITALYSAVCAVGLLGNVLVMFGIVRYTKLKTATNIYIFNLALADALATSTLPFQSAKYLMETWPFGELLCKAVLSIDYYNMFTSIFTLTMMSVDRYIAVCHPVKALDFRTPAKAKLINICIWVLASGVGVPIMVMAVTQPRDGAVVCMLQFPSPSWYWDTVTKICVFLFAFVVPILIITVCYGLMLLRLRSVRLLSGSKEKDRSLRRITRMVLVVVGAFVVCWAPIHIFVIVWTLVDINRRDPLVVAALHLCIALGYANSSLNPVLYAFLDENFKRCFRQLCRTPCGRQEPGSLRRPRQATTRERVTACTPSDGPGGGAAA
# PROTOCOL NOTES: [35S]GTPγS binding assay in NG108-15 cell membranes (delta opioid functional assay), 200 nM screen
# Assay type: biochemical
# EXPERIMENTAL PARAMETERS: 200 nM test compound; relative to calculated max of SNC80 dose response curve; NG108-15 cell membranes; averages if tested more than once

[
  {
    "MOLECULE": "CSc1ccc(Oc2nc(-c3cccnc3)ncc2NC[C@@H]2CCCN2)cc1 [Cpd 152]",
    "GTPγS δ-RelEfficacy @200 nM": 0.607
  },
  {
    "MOLECULE": "COc1ccc(Oc2nc(-c3cncc(C#N)c3)ncc2NCC2CNC2)cc1 [Cpd 215]",
    "GTPγS δ-RelEfficacy @200 nM": 0.674
  },
  {
    "MOLECULE": "Cc1ccc(Oc2nc(-c3cncc(F)c3)ncc2NC[C@@H]2CCCN2)cc1F [Cpd 185]",
    "GTPγS δ-RelEfficacy @200 nM": 0.447
  },
  {
    "MOLECULE": "COc1ccc(Oc2nc(-c3cncc(C#N)c3)ncc2N2CCC(N)CC2)cc1 [Cpd 333]",
    "GTPγS δ-RelEfficacy @200 nM": 0.664
  },
  {
    "MOLECULE": "CSc1cncc(-c2ncc(NC[C@@H]3CCCN3)c(Oc3ccccc3Cl)n2)c1 [Cpd 233]",
    "GTPγS δ-RelEfficacy @200 nM": 0.549
  }
]

###

The following compounds are shown together with reported GTPγS δ-opioid receptor Rel Efficacy values.
# TARGET ENTITY: delta opioid receptor (Mus musculus)
# Construct: NG108-15 cell membranes were purchased from Applied Cell Sciences (Rockville, Md.); host or cells: NG108-15 cell membranes
# PROTOCOL NOTES: [35S]GTPγS binding assay in NG108-15 cell membranes (delta opioid functional assay), 200 nM screen
# Assay type: biochemical
# EXPERIMENTAL PARAMETERS: relative efficacy from dose response; NG108-15 cell membranes

[
  {
    "COMPOUND": "COc1ccc(Oc2nc(-c3cncc(C#N)c3)ncc2N[C@H]2CCCNC2)cc1 [Cpd 207]",
    "GTPγS δ-opioid receptor Rel Efficacy": 1.047
  },
  {
    "COMPOUND": "Cc1ccc(Oc2nc(-c3cncc(Cl)c3)ncc2NC[C@@H]2CCCN2)cc1F [Cpd 186]",
    "GTPγS δ-opioid receptor Rel Efficacy": 1.113
  },
  {
    "COMPOUND": "COc1ccc(Oc2nc(-c3cc(C)cnc3Cl)ncc2NC[C@@H]2CCCN2)cc1 [Cpd 268]",
    "GTPγS δ-opioid receptor Rel Efficacy": 1.023
  },
  {
    "COMPOUND": "N#Cc1cncc(-c2ncc(NC[C@@H]3CCCN3)c(Oc3cccc(O)c3)n2)c1 [Cpd 231]",
    "GTPγS δ-opioid receptor Rel Efficacy": 1.113
  },
  {
    "COMPOUND": "COc1ccc(Oc2nc(-c3cncc(C)c3)ncc2N[C@@H]2CCCNC2)cc1 [Cpd 258]",
    "GTPγS δ-opioid receptor Rel Efficacy": 0.835
  },
  {
    "COMPOUND": "COc1ccc(Oc2nc(-c3cncc(CO)c3)ncc2NC[C@@H]2CCCN2)cc1 [Cpd 269]",
    "GTPγS δ-opioid receptor Rel Efficacy": 0.984
  },
  {
    "COMPOUND": "COc1ccc(Oc2nc(-c3cncc(C#N)c3)ncc2NC[C@@H]2CCCN2)cc1 [Cpd 69]",
    "GTPγS δ-opioid receptor Rel Efficacy": 1.004
  },
  {
    "COMPOUND": "Cc1ccc(Oc2nc(-c3cncnc3)ncc2NC[C@@H]2CCCN2)cc1 [Cpd 148]",
    "GTPγS δ-opioid receptor Rel Efficacy": 1.052
  },
  {
    "COMPOUND": "COc1ccc(Oc2nc(-c3cccc4ccccc34)ncc2NC[C@@H]2CCCN2)cc1 [Cpd 5]",
    "GTPγS δ-opioid receptor Rel Efficacy": 0.803
  },
  {
    "COMPOUND": "COc1ccc(Oc2nc(-c3cn[nH]c3)ncc2NC[C@@H]2CCCN2)cc1 [Cpd 65]",
    "GTPγS δ-opioid receptor Rel Efficacy": 0.824
  },
  {
    "COMPOUND": "COc1ccc(Oc2nc(-c3cccnc3)ncc2NC2CCCC(N)C2)cc1 (stereo not drawn) [Cpd 306]",
    "GTPγS δ-opioid receptor Rel Efficacy": 1.127
  },
  {
    "COMPOUND": "Cc1ccc(Oc2nc(-c3cccnc3)ncc2NC[C@@H]2CCCN2)cc1F [Cpd 187]",
    "GTPγS δ-opioid receptor Rel Efficacy": 1.104
  },
  {
    "COMPOUND": "COc1ccc(Oc2nc(-c3cncc(OC)c3)ncc2NC2CCCC(N)C2)cc1 (mixture of isomers) [Cpd 309]",
    "GTPγS δ-opioid receptor Rel Efficacy": 1.162
  },
  {
    "COMPOUND": "COc1ccc(Oc2nc(-c3cncc(SC)c3)ncc2N2CCNC(C)(C)C2)cc1 [Cpd 350]",
    "GTPγS δ-opioid receptor Rel Efficacy": 1.079
  },
  {
    "COMPOUND": "COc1ccc(Oc2nc(-c3cnc(F)c(C)c3)ncc2NC[C@@H]2CCCN2)cc1 [Cpd 262]",
    "GTPγS δ-opioid receptor Rel Efficacy": 0.957
  },
  {
    "COMPOUND": "COc1ccc(Oc2nc(-c3cncnc3)ncc2NC[C@@H]2CCCN2)cc1F [Cpd 133]",
    "GTPγS δ-opioid receptor Rel Efficacy": 1.041
  },
  {
    "COMPOUND": "O=CNc1ccc(Oc2nc(-c3cccnc3)ncc2NC[C@@H]2CCCN2)cc1 [Cpd 216]",
    "GTPγS δ-opioid receptor Rel Efficacy": 0.969
  },
  {
    "COMPOUND": "COc1cncc(-c2ncc(NC[C@@H]3CCCN3)c(Oc3cccc(OC(C)=O)c3)n2)c1 [Cpd 250]",
    "GTPγS δ-opioid receptor Rel Efficacy": 1.022
  }
]

###

# TARGET ENTITY: delta opioid receptor (Mus musculus)
# Construct: NG108-15 cell membranes were purchased from Applied Cell Sciences (Rockville, Md.); host or cells: NG108-15 cell membranes
# PROTOCOL NOTES: [35S]GTPγS binding assay in NG108-15 cell membranes (delta opioid functional assay), 200 nM screen
# Type: biochemical
# EXPERIMENTAL PARAMETERS: GTPγS δ-opioid receptor EC50 (μM), NG108-15 cell membranes; averages if tested more than once

[
  {
    "STRUCTURE AS SMILES": "COc1ccc(Oc2nc(-c3cnc(Cl)cc3C)ncc2NC[C@@H]2CCCN2)cc1",
    "RESULT UNIT": "µM",
    "EC50": 0.053
  },
  {
    "STRUCTURE AS SMILES": "COc1ccc(Oc2nc(-c3cccnc3)ncc2N[C@H]2CC[C@@H](N)CC2)cc1",
    "RESULT UNIT": "µM",
    "EC50": 0.09
  },
  {
    "STRUCTURE AS SMILES": "COc1ccc(Oc2nc(-c3cccnc3)ncc2N2CCNCC2)cc1",
    "RESULT UNIT": "µM",
    "EC50": 0.0527
  },
  {
    "STRUCTURE AS SMILES": "COc1ccc(Oc2nc(-c3cccnc3)ncc2N[C@@H]2CCC[C@H](N)C2)cc1",
    "RESULT UNIT": "µM",
    "EC50": 0.196
  },
  {
    "STRUCTURE AS SMILES": "COc1cncc(-c2ncc(NC[C@@H]3CCCN3)c(Oc3cccc(OC(C)=O)c3)n2)c1",
    "RESULT UNIT": "µM",
    "EC50": 0.026
  }
]
